Catalogue of emission maximum values
Procedure Details: solvent given as SMILES
Test Context: in C1CCCCC1
// note: answer is a bare numeric in nm

The cases that follow already have their emission maximum on record.
{"Compound": "CNc1ccc(/C=C/C#N)cc1", "Unit Label": "nm", "Assay Result": 368}
{"Compound": "Cc1cccc2ccccc12", "Unit Label": "nm", "Assay Result": 339.9}
{"Compound": "CC(C)(C)c1ccc(C2=CC3=C(c4ccccc4)c4cc(-c5ccc(C(C)(C)C)cc5)c(-c5ccc(C(C)(C)C)cc5)n4[B-](F)(F)[N+]3=C2c2ccc(C(C)(C)C)cc2)cc1", "Unit Label": "nm", "Assay Result": 643}
{"Compound": "Fc1ccc(N(c2ccc(F)cc2)c2ccc3c4cccc5c(N(c6ccc(F)cc6)c6ccc(F)cc6)ccc(c6cccc2c63)c54)cc1", "Unit Label": "nm", "Assay Result": 529}

Query: Give emission maximum for CCCCC1=Cc2c3ccc4cccc5ccc(c6cc(-c7ccccc7)n(c26)P1(=O)c1ccccc1)c3c45 (centres undefined)
Result: 452

Query: Give emission maximum for CCCCC1(CCCC)c2cc(C#Cc3ccc4ccc5cccc6ccc3c4c56)ccc2-c2ccc(N(c3ccccc3)c3ccccc3)cc21
Result: 436

Query: Give emission maximum for CB1C=Cc2ccc3ccccc3c2N1
Result: 373

Query: Give emission maximum for CN(C)c1ccc2nc(-c3ccc(/C=N/c4ccccc4)cc3)sc2c1
Result: 445

Query: Give emission maximum for CCC1=C(C)C2=C(C)c3c(I)c(I)cn3[B-](F)(F)[N+]2=C1C
Result: 538.5
